Test: Plasma pharmacokinetics of Compound 1 in patients with advanced solid tumor malignancies and TGCT
Assay type: in vivo, human
Conditions: human, plasma, oral, 10 mg, Cohort 1 10 mg QD; C1D1; Geo Mean; read-out: AUC0-8 h
VALUE TYPE: AUC(0-t) (ng·h/mL)

1. Cc1nc(-c2cnc(NC(C)C)n(C)c2=O)ccc1Oc1ccnc(-c2cnn(C)c2)c1 = 770

----------
Assay: Plasma pharmacokinetics of Compound 1 in patients with advanced solid tumor malignancies and TGCT
Type: in vivo, human
Details: human, plasma, oral, 40 mg, Cohort 6 40 mg Twice Weekly after 5-day QD loading dose; C1D8; GM (CV %)
VALUE TYPE: Cmax (ng/mL)

1) Cc1nc(-c2cnc(NC(C)C)n(C)c2=O)ccc1Oc1ccnc(-c2cnn(C)c2)c1 = 1860

----------
Assay: Plasma pharmacokinetics of Compound 1 in patients with advanced solid tumor malignancies and TGCT
Format: in vivo, human
Conditions: human, plasma, oral, 20 mg, Cohort 4 20 mg Twice Weekly after 5-day QD loading dose; C1D1; GM (CV %)
VALUE TYPE: Cmax

1) Cc1nc(-c2cnc(NC(C)C)n(C)c2=O)ccc1Oc1ccnc(-c2cnn(C)c2)c1 = 268 ng/mL

----------
Assay: Plasma pharmacokinetics of Compound 1 in patients with advanced solid tumor malignancies and TGCT
Type: in vivo, human
Conditions: human, plasma, oral, 20 mg, Cohort 4 20 mg Twice Weekly after 5-day QD loading dose; C1D1; GM (CV %); read-out: AUC0-8
VALUE TYPE: AUC(0-t) (ng·h/mL)

1. Cc1nc(-c2cnc(NC(C)C)n(C)c2=O)ccc1Oc1ccnc(-c2cnn(C)c2)c1 = 1610

----------
Assay: Plasma pharmacokinetics of Compound 1 in patients with advanced solid tumor malignancies and TGCT
Type: in vivo, human
Details: human, plasma, oral, 20 mg, Cohort 3 20 mg Weekly after 5-day QD loading dose; Day-7; GM (CV %)
VALUE TYPE: Cmax (ng/mL)

1. Cc1nc(-c2cnc(NC(C)C)n(C)c2=O)ccc1Oc1ccnc(-c2cnn(C)c2)c1 = 242

----------
Assay: Plasma pharmacokinetics of Compound 1 in patients with advanced solid tumor malignancies and TGCT
Type: in vivo, human
Settings: human, plasma, oral, 40 mg, Cohort 6 40 mg Twice Weekly after 5-day QD loading dose; C1D1; GM (CV %)
VALUE TYPE: Cmax (ng/mL)

1. Cc1nc(-c2cnc(NC(C)C)n(C)c2=O)ccc1Oc1ccnc(-c2cnn(C)c2)c1 = 830

----------
Assay: Plasma pharmacokinetics of Compound 1 in patients with advanced solid tumor malignancies and TGCT
Type: in vivo, human
Details: human, plasma, oral, 10 mg, Cohort 2 10 mg Twice Weekly after 5-day QD loading dose; C2D1; GM (CV %)
VALUE TYPE: Cmax (ng/mL)

1) Cc1nc(-c2cnc(NC(C)C)n(C)c2=O)ccc1Oc1ccnc(-c2cnn(C)c2)c1 [Compound 1] = 149

----------
Test: Plasma pharmacokinetics of Compound 1 in patients with advanced solid tumor malignancies and TGCT
Format: in vivo, human
Conditions: human, plasma, oral, 10 mg, Cohort 2 10 mg QD x 5 d, BIW maintenance dose; C1D1; Geo Mean
VALUE TYPE: Cmax (ng/mL)

1) Cc1nc(-c2cnc(NC(C)C)n(C)c2=O)ccc1Oc1ccnc(-c2cnn(C)c2)c1 = 168

----------
Assay: Plasma pharmacokinetics of Compound 1 in patients with advanced solid tumor malignancies and TGCT
Type: in vivo, human
Details: human, plasma, oral, 10 mg, Cohort 2 10 mg QD x 5 d, BIW maintenance dose; C2D1; Geo Mean; read-out: AUC0-8 h
VALUE TYPE: AUC(0-t) (ng·h/mL)

1) Cc1nc(-c2cnc(NC(C)C)n(C)c2=O)ccc1Oc1ccnc(-c2cnn(C)c2)c1 = 1030
